molecular target: Opioid receptor (Rattus norvegicus, UniProt P33533+P34975+P33535); experiment: Inhibition of [3H]naloxone binding to rat brain membrane with 100 mM NaCl.
READOUT LABEL: IC50 (nM)
Give a bare numeral; the unit nM is implied.

Previously resolved entries follow.
| MOLECULE | UNIT SYMBOL | IC50 |
| --- | --- | --- |
| CCOc1ccccc1N(CC)C(=O)C(C)C1(O)CCN(CCc2ccccc2Cl)CC1 (stereo unspecified) | nM | 1.8 |
| CCOc1ccccc1N(C)C(=O)C(C)C1(O)CCN(CCc2ccccc2Cl)CC1.O=C(O)/C=C/C(=O)O (stereo unspecified) | nM | 10 |
| CCN(C(=O)C(C)(C)C1(O)CCN(CCc2ccccc2Cl)CC1)c1ccccc1OC.O=C(O)/C=C/C(=O)O | nM | 35 |
| CN(C(=O)C(C)(C)C1(O)CCN(CCc2ccccc2Cl)CC1)C1CCCCC1 | nM | 825 |
| C#CCN(C(=O)C(C)C1(O)CCN(CCc2ccccc2Cl)CC1)c1ccccc1OC.O=C(O)/C=C\C(=O)O (stereo unspecified) | nM | 4.2 |
| CCCN(C(=O)C(C)C1(O)CCN(CCc2ccccc2Cl)CC1)c1ccccc1OC.O=C(O)/C=C/C(=O)O (stereo unspecified) | nM | 0.66 |
| COc1ccccc1N(C)C(=O)C(C)C1(O)CCN(CCc2ccccc2Cl)CC1.O=C(O)/C=C\C(=O)O (stereo unspecified) | nM | 51 |
| C=CCN(C(=O)C(C)C1(O)CCN(CCc2ccccc2Cl)CC1)c1ccccc1OC.O=C(O)/C=C\C(=O)O (stereo unspecified) | nM | 2.9 |
| CCN(C(=O)C(C)C1(O)CCN(CCc2ccccc2Cl)CC1)c1ccccc1OC.O=C(O)/C=C/C(=O)O (stereo unspecified) | nM | 6.3 |
| CC(C(=O)N(C)C1CCCCC1)C1(O)CCN(CCc2ccccc2Cl)CC1.O=C(O)/C=C\C(=O)O (stereo in doubt; 15) | nM | 450 |

Provide the documented IC50 with Opioid receptor (Rattus norvegicus, UniProt P33533+P34975+P33535) as the system for C=CCN(C(=O)C(C)C1(O)CCN(CCc2ccccc2Cl)CC1)C1CCCCC1.O=C(O)/C=C\C(=O)O (stereo unspecified)
20
